target: Human immunodeficiency virus type 1 reverse transcriptase (Human immunodeficiency virus 1, UniProt Q72547)
OUTCOME_MEASURE: pIC50
// pIC50 is dimensionless: -log10 of concentration (M)

Prompt: Which pIC50 is reported for this molecule? C[C@H](Cn1cnc2c(N)ncnc21)OCP(=O)(S)OP(=O)(O)OP(=O)(O)O (some centres undefined)
Completion: 4.86

Prompt: Nc1ncnc2c1ncn2CCOCP(=O)(O)OP(=O)(O)OP(=O)(O)O , same question.
Completion: 5.15

Prompt: And the next one, Nc1ncnc2c1ncn2CCOCP(=O)(S)OP(=O)(O)OP(=O)(O)O (centres undefined) ?
Completion: 5.17

Prompt: Entry C[C@H](Cn1cnc2c(N)ncnc21)OCP(=O)(O)OP(=O)(O)OP(=O)(O)O please
Completion: 4.95

* * *

Exercise: state measured half-life for each of the molecules provided.
assay: Half life of the compound in complete culture medium by HPLC analysis; assay type: physicochemical

Prompt: Please give the measured half-life for this molecule: Nc1ncnc2c1ncn2CCOCP(=O)([O-])[S-].[Na+].[Na+] (configuration not stated)
Completion: > 24 h

Prompt: Try this molecule next: C[C@H](Cn1cnc2c(N)ncnc21)OCP(=O)([O-])[S-].[Na+].[Na+] (some centres not stated)
Completion: > 24 h

* * *

Hi there, I'd appreciate the recorded CC50 for every entry that follows.
experiment: Cytotoxicity against human HuH7 cells; assay type: cell-based; settings: Huh-7 cells

Prompt: Could you tell me which CC50 is on file for Nc1ncnc2c1ncn2CCOCP(=O)(O)O ?
Completion: > 150 µM

Prompt: Another: Nc1ncnc2c1ncn2CCOCP(=O)([O-])[S-].[Na+].[Na+] (centres undefined)
Completion: > 150 µM

Prompt: Now consider C[C@H](Cn1cnc2c(N)ncnc21)OCP(=O)([O-])[S-].[Na+].[Na+] (some centres undefined) .
Completion: > 150 µM

Prompt: What about C[C@H](Cn1cnc2c(N)ncnc21)OCP(=O)(O)O [TENOFOVIR ANHYDROUS] ?
Completion: > 150 µM

* * *

system: Human immunodeficiency virus 1; test: Antiviral activity against 125 TCID50 wild type HIV1 LAI infected in human H9 cells assessed as reduction in viral replication measured on day 7 post infection by reverse transcriptase activity; assay type: functional, organism-based; conditions: Human immunodeficiency virus 1, LAI, H9, 168 h
OUTCOME_MEASURE: EC50 (nM)
Please respond with the number in nM and leave the unit unwritten.

Prompt: Query (compound): C[C@H](Cn1cnc2c(N)ncnc21)OCP(=O)(O)O [TENOFOVIR ANHYDROUS] ; field requested: EC50
Completion: 230

Prompt: Try this compound next: Nc1ncnc2c1ncn2CCOCP(=O)(O)O [ADEFOVIR]
Completion: 1100

Prompt: Next record, please: Nc1ncnc2c1ncn2CCOCP(=O)([O-])[S-].[Na+].[Na+] (centres undefined)
Completion: 1900

Prompt: Likewise for C[C@H](Cn1cnc2c(N)ncnc21)OCP(=O)([O-])[S-].[Na+].[Na+] (some centres undefined) ?
Completion: 380

* * *

system: CCRF-CEM; experiment: Cytotoxicity against human CEM cells; assay type: cell-based; settings: ccrf-cem
OUTCOME_MEASURE: CC50 (µM)
Supply the numeric figure in µM, leaving out any unit text.

Prompt: Query CC50 on CCRF-CEM for Nc1ncnc2c1ncn2CCOCP(=O)(O)O
Completion: 85

Prompt: Next: Nc1ncnc2c1ncn2CCOCP(=O)([O-])[S-].[Na+].[Na+] (configuration not stated)
Completion: 233
